system: TMD8 C481S cells; experiment: Cell viability assay (CellTiter-Glo), TMD8 C481S cells; conditions: TMD8 C481S cells, treatment time 72 h
Listed below: EMAX (% viable cells) values for each entry.

Compound: NC(=O)c1ncc(N2CCC[C@@H](N3CCOC3=O)C2)nc1Nc1ccc(C2CCN(C[C@H]3CCN(c4ccc5c(c4)C(=O)N(C4CCC(=O)NC4=O)C5=O)C3)CC2)cc1 (stereo partly shown) [Compound 73]
EMAX (% viable cells) (%): 19
//
Compound: O=C(c1ccc(Oc2ccccc2)cc1Cl)c1c[nH]c2ncnc(N[C@@H]3CC[C@@H](CO)OC3)c12 [ARQ531]
EMAX (% viable cells) (%): 17
//
Compound: CC#CC(=O)N1CCC[C@H]1c1nc(-c2ccc(C(=O)Nc3ccccn3)cc2)c2c(N)nccn12 [Acalabrutinib, acalabrutinib, reference compound]
EMAX (% viable cells) (%): 96
//
Compound: CN1CCN([C@@H]2CCCN(c3cnc(C(N)=O)c(Nc4ccc(N5CCN(C[C@@H]6CCN(c7ccc8c(c7)C(=O)N(C7CCC(=O)NC7=O)C8=O)C6)CC5)cc4)n3)C2)C1=O (stereo partly shown) [Compound 59]
EMAX (% viable cells) (%): 52
//
Compound: CN1CCN([C@@H]2CCCN(c3cnc(C(N)=O)c(Nc4ccc(C5CCN(CC6CCN(c7ccc8c(=O)n(C9CCC(=O)NC9=O)ccc8c7)CC6)CC5)cc4)n3)C2)C1=O (stereo partly shown) [Compound 72]
EMAX (% viable cells) (%): 21
//
Compound: CN1CCN([C@@H]2CCCN(c3cnc(C(N)=O)c(Nc4ccc(N5CCN(CC6CCN(c7ccc8c(c7)C(=O)N(C7CCC(=O)NC7=O)C8=O)CC6)CC5)cc4)n3)C2)C1=O (stereo partly shown) [Compound 49]
EMAX (% viable cells) (%): 23
//
Compound: CN1CCN([C@@H]2CCCN(c3cnc(C(N)=O)c(Nc4ccc(N5CCN(CCCCc6cccc7c6CN(C6CCC(=O)NC6=O)C7=O)CC5)cc4)n3)C2)C1=O (stereo partly shown) [Compound 17]
EMAX (% viable cells) (%): 15
//
Compound: CN1CCN([C@@H]2CCCN(c3cnc(C(N)=O)c(Nc4ccc(N5CCN(C[C@H]6CCN(c7ccc8c(c7)C(=O)N(C7CCC(=O)NC7=O)C8=O)C6)CC5)cc4)n3)C2)C1=O (stereo partly shown) [Compound 42]
EMAX (% viable cells) (%): 57
//
Compound: C=CC(=O)N1CCC[C@@H](n2nc(-c3ccc(Oc4ccccc4)cc3)c3c(N)ncnc32)C1 [Ibrutinib, reference compound]
EMAX (% viable cells) (%): 46
//
Compound: CN1CCN([C@@H]2CCCN(c3cnc(C(N)=O)c(Nc4ccc(C5CCN(CC6CN(c7ccc8c(c7)C(=O)N(C7CCC(=O)NC7=O)C8=O)C6)CC5)cc4)n3)C2)C1=O (stereo partly shown) [Compound 54]
EMAX (% viable cells) (%): 6
//
Compound: CN1CCN([C@@H]2CCCN(c3cnc(C(N)=O)c(Nc4ccc(N5CCC6(CC5)CCN(c5ccc7c(c5)C(=O)N(C5CCC(=O)NC5=O)C7=O)CC6)cc4)n3)C2)C1=O (stereo partly shown) [Compound 55]
EMAX (% viable cells) (%): 19
//
Compound: CN1CCN([C@@H]2CCCN(c3cnc(C(N)=O)c(Nc4ccc(N5CCC6(CCN(Cc7ccc8c(c7)CN([C@@H]7CCC(=O)NC7=O)C8=O)CC6)CC5)cc4)n3)C2)C1=O [Compound 210]
EMAX (% viable cells) (%): 40
//
Compound: CN1CCN([C@@H]2CCCN(c3cnc(C(N)=O)c(Nc4ccc(C5CCN(C6CN(Cc7ccc8c(c7)C(=O)N(C7CCC(=O)NC7=O)C8=O)C6)CC5)cc4)n3)C2)C1=O (stereo partly shown) [Compound 101]
EMAX (% viable cells) (%): 27

---

molecular target: BTK C481S (Homo sapiens, UniProt Q06187, C481S); test: BTK degradation (Total BTK HTRF) in TMD8 cells expressing BTK-C481S; assay type: cell-based; set-up: endogenous in cells; host or cells: TMD8 BTK-C481S (clone2C3), Cas9 RNP knock-in; conditions: TMD8 BTK-C481S (clone2C3) cells, treatment time 4 h
Sequence (Q06187 whole entry C481S): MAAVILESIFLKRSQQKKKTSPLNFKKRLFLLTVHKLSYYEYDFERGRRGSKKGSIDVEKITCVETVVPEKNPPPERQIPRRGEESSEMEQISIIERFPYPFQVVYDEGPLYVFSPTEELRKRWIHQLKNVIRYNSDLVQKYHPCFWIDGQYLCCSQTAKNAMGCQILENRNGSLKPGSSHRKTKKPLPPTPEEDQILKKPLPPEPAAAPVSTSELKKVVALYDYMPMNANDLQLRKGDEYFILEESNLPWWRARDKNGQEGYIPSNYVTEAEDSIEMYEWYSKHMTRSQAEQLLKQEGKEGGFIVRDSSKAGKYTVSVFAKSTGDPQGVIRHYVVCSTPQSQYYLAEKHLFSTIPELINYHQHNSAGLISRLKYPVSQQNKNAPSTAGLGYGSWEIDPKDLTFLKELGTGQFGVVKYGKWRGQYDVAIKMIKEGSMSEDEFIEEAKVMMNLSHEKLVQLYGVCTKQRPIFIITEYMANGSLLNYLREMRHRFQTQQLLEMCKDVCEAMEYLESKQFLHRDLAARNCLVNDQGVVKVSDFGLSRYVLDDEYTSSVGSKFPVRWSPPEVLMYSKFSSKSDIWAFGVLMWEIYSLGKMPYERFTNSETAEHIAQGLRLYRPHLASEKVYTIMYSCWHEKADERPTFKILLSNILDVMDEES
Quantity kind: DC50

Compound: NC(=O)c1ncc(N2CCCC3(COC3)C2)nc1Nc1ccc(C2CCN(C[C@H]3CCN(c4ccc5c(c4)C(=O)N(C4CCC(=O)NC4=O)C5=O)C3)CC2)cc1 (some centres unmarked) [Compound 126]
Recorded value: 7.7 nM
--
Compound: CN1CCN([C@H]2CCCN(c3cnc(C(N)=O)c(Nc4cnn(C5CCN(CC6CCN(c7ccc8c(c7)C(=O)N(C7CCC(=O)NC7=O)C8=O)CC6)CC5)c4)n3)C2)C1=O (some centres unmarked) [Compound 83]
Recorded value: 2.7 nM
--
Compound: CN1CCN([C@H]2CCCN(c3cnc(C(N)=O)c(Nc4ccc(C5CCN(CC6CCN(c7ccc(NC8CCC(=O)NC8=O)cn7)CC6)CC5)cc4)n3)C2)C1=O (some centres unmarked) [Compound 129]
Recorded value: 5.3 nM
--
Compound: NC(=O)c1ncc(N2CCCCC2)nc1Nc1ccc(C2CCN(CC3CCN(c4ccc5c(=O)n(C6CCC(=O)NC6=O)ccc5c4)CC3)CC2)cc1 (centres unmarked) [Compound 133]
Recorded value: 8.3 nM
--
Compound: CN1CCN([C@@H]2CCCN(c3cnc(C(N)=O)c(Nc4ccc(C5CCN(C[C@H]6CCN(c7ccc8c(c7)C(=O)N(C7CCC(=O)NC7=O)C8=O)C6)CC5)cc4)n3)C2)C1=O (some centres unmarked) [Compound 44]
Recorded value: 1.8 nM

---

Listed below: DC50 values for each entry.
target: Aiolos (Homo sapiens, UniProt Q96SW2+Q9UKT9); construct: endogenous in cells; host or cells: Mino, Rec-1; assay: Aiolos degradation in Mantle Cell Lymphoma lines (flow cytometry); type: cell-based; details: Rec-1 cells, treatment time 24 h
Sequence (Q9UKT9 whole entry): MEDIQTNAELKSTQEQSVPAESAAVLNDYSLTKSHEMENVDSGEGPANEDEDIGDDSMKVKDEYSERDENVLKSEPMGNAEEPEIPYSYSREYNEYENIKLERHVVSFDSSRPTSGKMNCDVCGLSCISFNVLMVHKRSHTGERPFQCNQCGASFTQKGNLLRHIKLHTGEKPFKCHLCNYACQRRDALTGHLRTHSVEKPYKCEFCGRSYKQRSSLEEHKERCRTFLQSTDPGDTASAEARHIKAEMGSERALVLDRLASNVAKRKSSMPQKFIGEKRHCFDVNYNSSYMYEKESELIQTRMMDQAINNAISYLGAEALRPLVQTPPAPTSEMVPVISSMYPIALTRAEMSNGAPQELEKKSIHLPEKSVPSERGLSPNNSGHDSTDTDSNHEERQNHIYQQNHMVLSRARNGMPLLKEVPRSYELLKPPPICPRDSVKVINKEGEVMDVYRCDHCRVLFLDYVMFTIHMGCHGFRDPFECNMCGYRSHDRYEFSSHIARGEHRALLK
Sequence (Q96SW2 whole entry): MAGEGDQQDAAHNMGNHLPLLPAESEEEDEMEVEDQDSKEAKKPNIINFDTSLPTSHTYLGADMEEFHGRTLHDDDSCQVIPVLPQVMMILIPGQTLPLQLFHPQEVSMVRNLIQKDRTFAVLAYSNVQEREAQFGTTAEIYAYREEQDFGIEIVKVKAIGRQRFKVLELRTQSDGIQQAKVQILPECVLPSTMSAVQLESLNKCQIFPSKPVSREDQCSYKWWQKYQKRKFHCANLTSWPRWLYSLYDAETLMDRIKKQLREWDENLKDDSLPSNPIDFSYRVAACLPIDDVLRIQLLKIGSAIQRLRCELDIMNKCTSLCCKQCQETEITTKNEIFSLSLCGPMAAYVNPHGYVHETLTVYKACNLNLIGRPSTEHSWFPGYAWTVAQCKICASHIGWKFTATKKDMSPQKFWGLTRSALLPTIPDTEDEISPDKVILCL
Sequence (Q16531 whole entry partner): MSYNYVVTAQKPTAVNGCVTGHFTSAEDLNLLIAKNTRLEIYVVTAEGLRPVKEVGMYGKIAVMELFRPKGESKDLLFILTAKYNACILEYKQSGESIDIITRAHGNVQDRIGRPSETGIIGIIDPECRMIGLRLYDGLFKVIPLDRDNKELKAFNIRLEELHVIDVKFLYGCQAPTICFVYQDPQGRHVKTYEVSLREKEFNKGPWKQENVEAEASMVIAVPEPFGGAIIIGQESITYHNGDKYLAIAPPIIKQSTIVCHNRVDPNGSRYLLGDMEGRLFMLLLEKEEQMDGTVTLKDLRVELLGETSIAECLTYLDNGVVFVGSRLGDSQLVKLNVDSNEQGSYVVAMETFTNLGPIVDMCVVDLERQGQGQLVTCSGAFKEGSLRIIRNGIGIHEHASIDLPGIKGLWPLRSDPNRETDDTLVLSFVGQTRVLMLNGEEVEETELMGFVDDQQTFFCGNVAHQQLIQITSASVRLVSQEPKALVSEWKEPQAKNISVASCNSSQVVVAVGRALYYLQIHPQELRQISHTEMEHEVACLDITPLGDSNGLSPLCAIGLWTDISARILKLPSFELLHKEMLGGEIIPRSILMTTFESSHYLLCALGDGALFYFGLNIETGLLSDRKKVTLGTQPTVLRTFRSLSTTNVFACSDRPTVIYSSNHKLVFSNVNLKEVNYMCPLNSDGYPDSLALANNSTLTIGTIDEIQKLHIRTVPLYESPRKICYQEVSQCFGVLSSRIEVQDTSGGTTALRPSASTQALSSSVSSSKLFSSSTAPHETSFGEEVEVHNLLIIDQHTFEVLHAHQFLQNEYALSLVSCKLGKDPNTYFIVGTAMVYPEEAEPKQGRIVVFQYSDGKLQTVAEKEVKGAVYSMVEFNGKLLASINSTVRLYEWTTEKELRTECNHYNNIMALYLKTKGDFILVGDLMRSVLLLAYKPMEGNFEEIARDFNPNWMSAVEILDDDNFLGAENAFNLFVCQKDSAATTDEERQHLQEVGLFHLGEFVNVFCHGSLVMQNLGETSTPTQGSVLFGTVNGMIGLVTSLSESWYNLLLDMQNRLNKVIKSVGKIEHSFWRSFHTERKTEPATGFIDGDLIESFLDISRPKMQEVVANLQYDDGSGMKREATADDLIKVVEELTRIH

Compound: NC(=O)c1ncc(N2CCCCC2)nc1Nc1ccc(C2CCN(C[C@@H]3CCN(c4ccc5c(c4)C(=O)N(C4CCC(=O)NC4=O)C5=O)C3)CC2)cc1 (some centres unmarked)
Sign: =
DC50, nM: 81
--
Compound: CN1CCN([C@@H]2CCCN(c3cnc(C(N)=O)c(Nc4ccc5c(c4)CCN(C4CN(c6ccc7c(c6)C(=O)N(C6CCC(=O)NC6=O)C7=O)C4)C5)n3)C2)C1=O (some centres unmarked)
Sign: =
DC50, nM: 34
--
Compound: CN1CCN([C@H]2CCCN(c3cnc(C(N)=O)c(Nc4ccc(C5CCN(CC6CCN(c7ccc(C(=O)NC8CCC(=O)NC8=O)nc7)CC6)CC5)cc4)n3)C2)C1=O (some centres unmarked)
Sign: >
DC50, nM: 2000
--
Compound: CN1CCN([C@@H]2CCCN(c3cnc(C(N)=O)c(Nc4ccc(C5CCN(C(=O)CCOCCNc6cccc7c6C(=O)N(C6CCC(=O)NC6=O)C7=O)CC5)cc4)n3)C2)C1=O (some centres unmarked)
Sign: =
DC50, nM: 31
--
Compound: CN1CCN([C@@H]2CCCN(c3cnc(C(N)=O)c(Nc4ccc(C5CCN(C[C@H]6CCN(c7ccc8c(c7)C(=O)N(C7CCC(=O)NC7=O)C8=O)C6)CC5)cc4)n3)C2)C1=O (some centres unmarked)
Sign: =
DC50, nM: 70

---

assay: Compound plasma exposure in mouse (CD-1), daily oral dosing, same table as the cyno DRF study; assay type: in vivo; details: CD-1, mouse, 30 mg/kg, 30 mg/kg PO, 14 days of dosing
Listed below: AUC values for each entry.

Molecule: NC(=O)c1ncc(N2CCCCC2)nc1Nc1ccc(C2CCN(C[C@@H]3CCN(c4ccc5c(c4)C(=O)N(C4CCC(=O)NC4=O)C5=O)C3)CC2)cc1 (stereo partly drawn)
AUC: 22.8 µM·h
--
Molecule: CN1CCN([C@@H]2CCCN(c3cnc(C(N)=O)c(Nc4ccc(C5CCN(C[C@H]6CCN(c7ccc8c(c7)C(=O)N(C7CCC(=O)NC7=O)C8=O)C6)CC5)cc4)n3)C2)C1=O (stereo partly drawn)
AUC: 2.22 µM·h
--
Molecule: CN1CCN([C@H]2CCCN(c3cnc(C(N)=O)c(Nc4ccc(C5CCN(CC6CCN(c7ccc(C(=O)NC8CCC(=O)NC8=O)nc7)CC6)CC5)cc4)n3)C2)C1=O (stereo partly drawn)
AUC: 21.1 µM·h

---

target: BTK C481S (Homo sapiens, UniProt Q06187, C481S); experiment: BTK degradation (Total BTK HTRF) in TMD8 cells expressing BTK-C481S; type: cell-based; design: endogenous in cells; host or cells: TMD8 BTK-C481S (clone2C3), Cas9 RNP knock-in; details: TMD8 BTK-C481S (clone2C3) cells, treatment time 4 h
Listed below: DC50 values for each entry.

Compound: CN1CCN([C@@H]2CCCN(c3cnc(C(N)=O)c(Nc4ccc(C5CN(C6CCN(c7ccc8c(c7)C(=O)N(C7CCC(=O)NC7=O)C8=O)CC6)C5)cc4)n3)C2)C1=O (stereo partly drawn)
DC50: 2.7 nM

Compound: CN1CCN([C@@H]2CCCN(c3cnc(C(N)=O)c(Nc4ccc(C5CCN(CC6CCN(c7ccc(-c8nn(C9CCC(=O)NC9=O)c(=O)n8C)cc7)CC6)CC5)cc4)n3)C2)C1=O (stereo partly drawn)
DC50: 4.1 nM

Compound: CN1CCN([C@@H]2CCCN(c3cnc(C(N)=O)c(Nc4ccc(C5CCN(C6CN(c7ccc8c(c7)C(=O)N(C7CCC(=O)NC7=O)C8=O)C6)CC5)cc4)n3)C2)C1=O (stereo partly drawn)
DC50: 8 nM
